Value source: patent US20260218138A1

experiment: Enzyme-coupled assay: transfer of acyl-moieties from MMal-CoA to the ACP
Type: biochemical
test.conditions: substrate MMal-CoA, acceptor ACP from murine FAS
# kcat per record follows
Write the numeric value and append its unit.

Solved entries (count: 3):
{"molecule": "Mutant A02: engineered murine acyltransferase, mutation T161Y (protein) NKRPLWFICSGMGTQWRGMGLSLMRLDSFRESILRSDEAVKPLGVKVSDLLLSTDERTFDDIVHAFVSLTAIQIALIDLLTSVGLKPDGIIGHSLGEVACGYADGCLSQREAVLAAYWRGQCIKDAHLPPGSMAAVGLSWEECKQRCPAGVVPACHNSEDYVTISGPQAAVNEFVEQLKQEGVFAKEVRTGGLAFHSYFMEGIAPTLLQALKKVIREPRPRSARWLSTSIPEAQWQSSLARTSSAEYNVNNLVSPVLFQEALWHIPEHAVVLEIAPHALLQAVLKRGVKSSCTIIPLMKRDHKDNLEFFLTNLGKVHLT", "result": "0.428 s⁻¹"}
{"molecule": "Mutant A11: engineered murine acyltransferase, mutation R300E (protein) NKRPLWFICSGMGTQWRGMGLSLMRLDSFRESILRSDEAVKPLGVKVSDLLLSTDERTFDDIVHAFVSLTAIQIALIDLLTSVGLKPDGIIGHSLGEVACGYADGCLSQREAVLAAYWRGQCIKDAHLPPGSMAAVGLSWEECKQRCPAGVVPACHNSEDTVTISGPQAAVNEFVEQLKQEGVFAKEVRTGGLAFHSYFMEGIAPTLLQALKKVIREPRPRSARWLSTSIPEAQWQSSLARTSSAEYNVNNLVSPVLFQEALWHIPEHAVVLEIAPHALLQAVLKRGVKSSCTIIPLMKEDHKDNLEFFLTNLGKVHLT", "result": "0.834 s⁻¹"}
{"molecule": "Mutant A07: engineered murine acyltransferase, mutation K186D (protein) NKRPLWFICSGMGTQWRGMGLSLMRLDSFRESILRSDEAVKPLGVKVSDLLLSTDERTFDDIVHAFVSLTAIQIALIDLLTSVGLKPDGIIGHSLGEVACGYADGCLSQREAVLAAYWRGQCIKDAHLPPGSMAAVGLSWEECKQRCPAGVVPACHNSEDTVTISGPQAAVNEFVEQLKQEGVFADEVRTGGLAFHSYFMEGIAPTLLQALKKVIREPRPRSARWLSTSIPEAQWQSSLARTSSAEYNVNNLVSPVLFQEALWHIPEHAVVLEIAPHALLQAVLKRGVKSSCTIIPLMKRDHKDNLEFFLTNLGKVHLT", "result": "0.093 s⁻¹"}

[ask] Record request: kcat value, item (WT): wild type murine FAS malonyl-acetyl-transferase (MAT), no mutation (protein, listed as Mus musculus) NKRPLWFICSGMGTQWRGMGLSLMRLDSFRESILRSDEAVKPLGVKVSDLLLSTDERTFDDIVHAFVSLTAIQIALIDLLTSVGLKPDGIIGHSLGEVACGYADGCLSQREAVLAAYWRGQCIKDAHLPPGSMAAVGLSWEECKQRCPAGVVPACHNSEDTVTISGPQAAVNEFVEQLKQEGVFAKEVRTGGLAFHSYFMEGIAPTLLQALKKVIREPRPRSARWLSTSIPEAQWQSSLARTSSAEYNVNNLVSPVLFQEALWHIPEHAVVLEIAPHALLQAVLKRGVKSSCTIIPLMKRDHKDNLEFFLTNLGKVHLT
[reply] 1.297 s⁻¹

[ask] Record request: kcat value, item Mutant A03: engineered murine acyltransferase, mutations T161A F184A R286A (protein) NKRPLWFICSGMGTQWRGMGLSLMRLDSFRESILRSDEAVKPLGVKVSDLLLSTDERTFDDIVHAFVSLTAIQIALIDLLTSVGLKPDGIIGHSLGEVACGYADGCLSQREAVLAAYWRGQCIKDAHLPPGSMAAVGLSWEECKQRCPAGVVPACHNSEDAVTISGPQAAVNEFVEQLKQEGVAAKEVRTGGLAFHSYFMEGIAPTLLQALKKVIREPRPRSARWLSTSIPEAQWQSSLARTSSAEYNVNNLVSPVLFQEALWHIPEHAVVLEIAPHALLQAVLKAGVKSSCTIIPLMKRDHKDNLEFFLTNLGKVHLT
[reply] 0.021 s⁻¹
